# target_or_test_system: Mitogen-activated protein kinase kinase kinase 3 (Homo sapiens)
# measurement_notes: modulators of MEKK3-MEK5 PB1 binding, primary screen, biochemical, wildtype MEKK3, multiplex bead flow cytometry, Alexa488-MEK5 (AID 1529);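 also: Alexa488 bead fluorescence after subtracting the streptavidin-only scavenger bead signal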
# conditions: bead-based flow cytometry, Alexa488-MEK5 binding to MEKK3; at 10 µM; actives lie on both sides; 0 = blocked by unlabeled MEK5, 100 = vehicle
The whole screen tested about 290,000 compounds, of which about 4,200 (1.4%) were called active.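 The calls were made as follows: active = binding response more than 3 SD above or below the average of its plate-row segment, actives on both sides; inconclusive = wells at one plate position flagged as instrument error; inactive = the rest.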 The list comes from a sample in which actives are over-represented; it also holds close analogues and randomly drawn compounds.
Possible outcomes: YES = active, NO = inactive

{"molecule": "Cc1c(C(C)(C)O)[nH]c2ccc(C#N)cc12", "target_or_test_system": "Mitogen-activated protein kinase kinase kinase 3 (Homo sapiens)", "class_assignment": "NO"}
{"molecule": "CC1CCC(NC(=O)c2ccc(N3CCCC3=O)cc2)CC1 (stereo unspecified)", "target_or_test_system": "Mitogen-activated protein kinase kinase kinase 3 (Homo sapiens)", "class_assignment": "NO"}
{"molecule": "Cc1nc(-c2ccc(Cl)cc2)sc1C1(C)CC(c2ccc(Br)cc2)=NO1 (stereo unspecified)", "target_or_test_system": "Mitogen-activated protein kinase kinase kinase 3 (Homo sapiens)", "class_assignment": "NO"}
{"molecule": "Cc1cc(C)cc(NC(=O)NCc2ccccn2)c1", "target_or_test_system": "Mitogen-activated protein kinase kinase kinase 3 (Homo sapiens)", "class_assignment": "NO"}
{"molecule": "O=C(NCCCN1CCCCCC1)c1ccc(N2CCCC2=O)cc1", "target_or_test_system": "Mitogen-activated protein kinase kinase kinase 3 (Homo sapiens)", "class_assignment": "NO"}
{"molecule": "Cc1cc(N2CCOCC2)nc2ccc(NC(=S)N3CCN(Cc4ccccc4)CC3)cc12", "target_or_test_system": "Mitogen-activated protein kinase kinase kinase 3 (Homo sapiens)", "class_assignment": "NO"}
{"molecule": "COc1ccc(C(=O)NCc2nnc(SCC(=O)NC3=NCCS3)n2C)cc1", "target_or_test_system": "Mitogen-activated protein kinase kinase kinase 3 (Homo sapiens)", "class_assignment": "YES"}
{"molecule": "Cc1ccc(CNC(=O)C2CCCN2S(=O)(=O)c2ccc3c(c2)C(C)(C)C(=O)N3C)cc1 (stereo unspecified)", "target_or_test_system": "Mitogen-activated protein kinase kinase kinase 3 (Homo sapiens)", "class_assignment": "NO"}
{"molecule": "CC(C)CC(=O)Nc1ccc(Cc2ccncc2)cc1", "target_or_test_system": "Mitogen-activated protein kinase kinase kinase 3 (Homo sapiens)", "class_assignment": "NO"}
{"molecule": "COc1ccc(N2CCN(C(=O)CN3C(=O)COc4ccccc43)CC2)cc1", "target_or_test_system": "Mitogen-activated protein kinase kinase kinase 3 (Homo sapiens)", "class_assignment": "NO"}
{"molecule": "COc1ccc(C(=O)NCc2nnc(SCCOc3ccccc3)n2C)cc1", "target_or_test_system": "Mitogen-activated protein kinase kinase kinase 3 (Homo sapiens)", "class_assignment": "NO"}
